# Test system: Fibroblast
# method: Multiplex assay against human fibroblast
# Type: toxicity, cell-based
# study conditions: 24 h, 1 µM, compound concentration 1 uM, replicate 1
Quick rule for you: Population Apoptotic (%) at 70% or higher means 1.0, lower means 0.0.

Quick check: does S=C(NCCCc1c[nH]cn1)NCCCN(Cc1ccc(Cl)c(Cl)c1)c1ccc(Br)cn1 have Population Apoptotic (%) greater than or equal to 70%?
0.0

Quick check: does C=CCn1c(=O)c2cnc(Nc3ccc(N4CCN(C)CC4)cc3)nc2n1-c1cccc(C(C)(C)O)n1 [ADAVOSERTIB] have Population Apoptotic (%) greater than or equal to 70%?
1.0

Quick check: does O=C(Nc1ccc(-n2nc(-c3cccnc3)cc2C(F)(F)F)cn1)c1ccc(-c2ccccc2)c(F)c1 [BI 2049] have Population Apoptotic (%) greater than or equal to 70%?
0.0

Quick check: does COC(=N)c1nc2ccc3ncnc(Nc4ccc(OC)cc4F)c3c2s1 have Population Apoptotic (%) greater than or equal to 70%?
1.0

Quick check: does CCc1cccc(CC)c1NC(=O)c1nn(C)c2c1CCc1cnc(Nc3ccc(N4CCN(C)CC4)cc3OC)nc1-2 have Population Apoptotic (%) greater than or equal to 70%?
1.0

Quick check: does CN1CCC(=C2c3ccccc3CC(=O)c3sccc32)CC1.O=C(O)/C=C/C(=O)O [KETOTIFEN FUMARATE] have Population Apoptotic (%) greater than or equal to 70%?
0.0

Quick check: does O=C(Nc1ccc(Cl)cc1)Nc1cccc(-c2cccc(N3CCCC3)n2)c1 have Population Apoptotic (%) greater than or equal to 70%?
0.0

Quick check: does Cc1cc(C)c(S(=O)(=O)N(Cc2ccc(-c3cccc(S(C)(=O)=O)c3)cc2)Cc2ccc(C(F)(F)F)o2)c(C)c1 have Population Apoptotic (%) greater than or equal to 70%?
0.0

----------
# Tested on: U2OS
# method: Multiplex assay against U2OS
# Type: toxicity, cell-based
# study conditions: human, 24 h, 10 µM, compound concentration 10 uM, replicate 2
This listing pairs compounds with measured Population Normal (%).
Report the value in % with no unit label.

What the record says about COc1cc2ncnc(Nc3ccc(F)c(Cl)c3)c2cc1NC(=O)/C=C/CN1CCCCC1 [DACOMITINIB ANHYDROUS] : Population Normal (%) is 90

What the record says about CCOc1cc(C(=O)N2CCC(N3CCN(C)CC3)CC2)ccc1Nc1ncc2c(n1)N(C1CCCC1)c1ccccc1C(=O)N2C : Population Normal (%) is 88

----------
# Test system: U2OS
# method: Multiplex assay against U2OS
# Type: toxicity, cell-based
# study conditions: human, 48 h, 1 µM, compound concentration 1 uM, replicate 1
This listing pairs compounds with measured Population Apoptotic (%).

Some compounds with known Population Apoptotic (%) results, for comparison:
CN(C)C(=O)C(CCN1CCC(O)(c2ccc(Cl)cc2)CC1)(c1ccccc1)c1ccccc1.Cl [LOPERAMIDE HYDROCHLORIDE] = 60%
Cl.Oc1ccc2c3c1O[C@H]1c4[nH]c5c(c4C[C@@]4(O)[C@@H](C2)N(CC2CC2)CC[C@]314)C[C@@]1(O)[C@H]2Cc3ccc(O)c4c3[C@@]1(CCN2CC1CC1)[C@H]5O4 = 22%
Cc1cc(C)c(S(=O)(=O)N(Cc2ccc(-c3cccc(S(C)(=O)=O)c3)cc2)Cc2ccc(C(F)(F)F)o2)c(C)c1 = 64%

What the record says about CCOC(=O)c1c(C)[nH]c2ccc3c(c12)CN1CCc2cc(OC)ccc2C1O3 (configuration not stated) : Population Apoptotic (%) is 44%

What the record says about CN1C2CCC1CC(OC(c1ccc(F)cc1)c1ccc(F)cc1)C2.Cl (configuration not stated) : Population Apoptotic (%) is 33%

What the record says about Cl.O=c1c2cccn2c2ccccc2n1CCCN1CCC(c2ccc(Cl)cc2)CC1 : Population Apoptotic (%) is 51%

What the record says about CCCS(=O)(=O)c1nc(NC2CC2)cc(-c2ccc3c(ccn3C3CC(C)(C)NC(C)(C)C3)c2)n1 : Population Apoptotic (%) is 37%
